Catalogue of kon values
molecular target: T1, Recombinant human TRIM21 PRYSPRY domain (His-tagged, expressed in E. coli BL21 (DE3)) (human, UniProt P19474 287-475, biotinylated when used as bait for biopanning and in the ELISAs (sites not given)); test: SPR as in Example 1.10, TRIM21 PRYSPRY domain;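 further: antibodies amine-coupled to a GLC chip on a ProteON XPR36, TRIM21 flowed at five concentrations in PBS with 0.05% Tween-20, kinetics fitted to a Langmuir 1:1 model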
T1 construct: Purified on Ni-NTA and by gel filtration; Analyte in SPR; biotinylated form used in biopanning and ELISA; also called PRYSPRY domain of TRIM21; bait protein; not shown: N-terminal His-tag of the pQE-2 vector
T1 sequence (P19474 287-475): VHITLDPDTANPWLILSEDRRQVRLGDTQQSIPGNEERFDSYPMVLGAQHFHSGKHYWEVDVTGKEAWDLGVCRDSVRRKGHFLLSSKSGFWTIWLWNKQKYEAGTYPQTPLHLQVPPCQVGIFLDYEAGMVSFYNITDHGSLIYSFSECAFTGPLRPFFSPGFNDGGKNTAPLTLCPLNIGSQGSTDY
measured.attribute: kon (M⁻¹ s⁻¹)

- Fc region SN 46 of FIG. 13 (IgG1 256P/433V/434R) (other) PCPAPELLGGPSVFLFPPKPKDTLMISRPPEVTCVVVDVSHEDPEVKFNWYVDGVEVHNAKTKPREEQYNSTYRVVSVLTVLHQDWLNGKEYKCKVSNKALPAPIEKTISKAKGQPREPQVYTLPPSRDELTKNQVSLTCLVKGFYPSDIAVEWESNGQPENNYKTTPPVLDSDGSFFLYSKLTVDKSRWQQGNVFSCSVMHEALVRHYTQKSLSLSPGK: 730000
- Fc region SN 92 of FIG. 13 (IgG1 256A/436F/440M) (other) PCPAPELLGGPSVFLFPPKPKDTLMISRAPEVTCVVVDVSHEDPEVKFNWYVDGVEVHNAKTKPREEQYNSTYRVVSVLTVLHQDWLNGKEYKCKVSNKALPAPIEKTISKAKGQPREPQVYTLPPSRDELTKNQVSLTCLVKGFYPSDIAVEWESNGQPENNYKTTPPVLDSDGSFFLYSKLTVDKSRWQQGNVFSCSVMHEALHNHFTQKMLSLSPGK: 3.94e+06
- Fc region SN 32 of FIG. 13 (IgG1 256P/433T/434R) (other) PCPAPELLGGPSVFLFPPKPKDTLMISRPPEVTCVVVDVSHEDPEVKFNWYVDGVEVHNAKTKPREEQYNSTYRVVSVLTVLHQDWLNGKEYKCKVSNKALPAPIEKTISKAKGQPREPQVYTLPPSRDELTKNQVSLTCLVKGFYPSDIAVEWESNGQPENNYKTTPPVLDSDGSFFLYSKLTVDKSRWQQGNVFSCSVMHEALTRHYTQKSLSLSPGK: 1.06e+06
- Fc region SN 9 of FIG. 13 (IgG1 256P/433V/434H) (other) PCPAPELLGGPSVFLFPPKPKDTLMISRPPEVTCVVVDVSHEDPEVKFNWYVDGVEVHNAKTKPREEQYNSTYRVVSVLTVLHQDWLNGKEYKCKVSNKALPAPIEKTISKAKGQPREPQVYTLPPSRDELTKNQVSLTCLVKGFYPSDIAVEWESNGQPENNYKTTPPVLDSDGSFFLYSKLTVDKSRWQQGNVFSCSVMHEALVHHYTQKSLSLSPGK: 5.03e+06
